These measurements were taken from ChEMBL document CHEMBL4229573.

subjectOfTest: Son of sevenless homolog 1 (Homo sapiens) (UniProt Q07889)
Sequence (whole entry): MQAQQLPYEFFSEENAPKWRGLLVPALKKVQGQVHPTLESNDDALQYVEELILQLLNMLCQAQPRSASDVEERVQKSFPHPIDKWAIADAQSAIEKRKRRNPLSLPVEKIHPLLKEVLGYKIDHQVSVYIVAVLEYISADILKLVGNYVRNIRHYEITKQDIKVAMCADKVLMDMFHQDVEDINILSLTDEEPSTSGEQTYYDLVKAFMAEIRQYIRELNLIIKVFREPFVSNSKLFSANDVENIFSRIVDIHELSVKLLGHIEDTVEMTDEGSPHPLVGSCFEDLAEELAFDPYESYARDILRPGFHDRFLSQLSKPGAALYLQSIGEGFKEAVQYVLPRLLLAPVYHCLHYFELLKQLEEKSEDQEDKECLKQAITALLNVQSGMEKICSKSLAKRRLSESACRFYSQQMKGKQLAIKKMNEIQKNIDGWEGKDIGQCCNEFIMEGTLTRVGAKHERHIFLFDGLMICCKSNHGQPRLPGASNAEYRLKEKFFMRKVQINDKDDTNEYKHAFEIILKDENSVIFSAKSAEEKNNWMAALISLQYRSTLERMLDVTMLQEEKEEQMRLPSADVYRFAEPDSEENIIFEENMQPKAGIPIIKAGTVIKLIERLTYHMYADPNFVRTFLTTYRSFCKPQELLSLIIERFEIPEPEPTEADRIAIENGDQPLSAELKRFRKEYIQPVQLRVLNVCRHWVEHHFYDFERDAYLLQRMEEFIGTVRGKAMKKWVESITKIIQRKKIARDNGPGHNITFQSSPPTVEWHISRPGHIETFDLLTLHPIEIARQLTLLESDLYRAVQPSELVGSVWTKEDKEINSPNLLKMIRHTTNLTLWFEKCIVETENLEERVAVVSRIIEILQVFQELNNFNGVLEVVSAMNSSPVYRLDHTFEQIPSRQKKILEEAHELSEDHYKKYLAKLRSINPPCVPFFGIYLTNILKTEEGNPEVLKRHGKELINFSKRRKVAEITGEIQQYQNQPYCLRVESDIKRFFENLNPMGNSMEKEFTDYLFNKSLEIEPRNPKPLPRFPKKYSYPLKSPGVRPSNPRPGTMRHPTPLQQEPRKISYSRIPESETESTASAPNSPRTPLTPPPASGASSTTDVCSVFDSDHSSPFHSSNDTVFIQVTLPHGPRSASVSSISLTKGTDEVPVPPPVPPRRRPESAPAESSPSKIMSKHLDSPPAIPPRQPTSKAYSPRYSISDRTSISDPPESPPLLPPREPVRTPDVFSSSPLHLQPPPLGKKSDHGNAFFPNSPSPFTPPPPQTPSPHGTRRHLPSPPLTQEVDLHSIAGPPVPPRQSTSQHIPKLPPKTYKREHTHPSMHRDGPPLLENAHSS
measurementProtocol: Activation of SOS1 in human HeLa cells assessed as effect on ERK1/2 phosphorylation at T202/Y204 residue by measuring […] at 100 uM after 30 mins by Western blot analysis relative to control
reportedEndpoint: fold change (FC)

C[C@@H](Nc1nc(Nc2ccc(F)c(Cl)c2)nc2c(C3=CCNCC3)cccc12)C1CC1    0.58
C[C@@H](Nc1nc(Nc2ccc(F)c(Cl)c2)nc2ccccc12)C1CC1    4.01
C[C@@H](Nc1nc(Nc2ccc(F)c(Cl)c2)nc2c(CN)cccc12)C1CC1    0.59
C[C@@H](Nc1nc(Nc2ccc(F)c(Cl)c2)nc2c(CCN)cccc12)C1CC1    0.44
